// data source = patent US20220306765A1

biological target: human CLDN18.2-mRFP E56Q (human); test: FACS, transfected HEK293, 10 µg/ml antibody;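 further: antibody binding read by flow cytometry with a FITC-labelled anti-human IgG secondary, gated on RFP-positive cells, each mutant signal expressed against wild-type CLDN18.2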
Sequence (chain, as listed by the source E56Q E56Q limits assumed): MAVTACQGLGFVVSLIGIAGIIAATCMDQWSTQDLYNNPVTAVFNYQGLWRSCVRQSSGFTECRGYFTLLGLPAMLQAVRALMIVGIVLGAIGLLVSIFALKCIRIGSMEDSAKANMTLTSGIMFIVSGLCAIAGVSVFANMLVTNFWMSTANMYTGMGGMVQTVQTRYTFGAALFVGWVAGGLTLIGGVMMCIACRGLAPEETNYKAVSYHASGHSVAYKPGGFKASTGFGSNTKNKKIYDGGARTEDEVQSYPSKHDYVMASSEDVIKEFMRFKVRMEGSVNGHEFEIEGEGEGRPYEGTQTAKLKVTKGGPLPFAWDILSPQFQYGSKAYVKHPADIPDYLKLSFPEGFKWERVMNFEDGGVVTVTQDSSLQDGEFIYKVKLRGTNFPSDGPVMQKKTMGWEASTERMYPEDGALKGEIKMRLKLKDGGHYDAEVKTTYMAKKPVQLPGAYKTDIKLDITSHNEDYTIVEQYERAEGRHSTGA
binding percentage vs wild-type CLDN18.2 values for the binders below.
Give a bare numeral; the unit % is implied.

Record excerpt, results attached:
# binder, unit, binding percentage vs wild-type CLDN18.2
records = [
    ("12E9-C (antibody, human IgG1, V domains shown, also called chimeric 12E9) VH: EFQLQQSGPELEKPGASVRISCKTSGYSFTGYNMNWVKQSNGESLEWIGNIDPYYGGTRYNQKFKGKATLTVDKSSSTAYMQLKSLTSEDSAVYYCARSYYGNAFDYWGQGTTLTVSS VL: DIVMTQSPSSLTVTAGEKVTMSCKSSQNLLNNGNQKNYLTWYQQKPGQPPKLLIYWASTRESGVPDRFTGSGSGTDFILTISSVQAEDLAVYYCQNDYSFPFTFGAGTKLELK", "%", 0.35),
    ("26G6-C (antibody, human IgG1, V domains shown, also called chimeric 26G6) VH: EFQLQQSGPELEKPGASVKISCKTSGYSFTGYNMNWVKQSNGQSLEWIGHIDPYYVTTTYNQKFRGKATLTVDKSSSTAYMQLKSLTSEDSAVYYCARSFYGNAFDYWGQGTTLTVSS VL: DIVMTQSPSSLTVTAGEKVTMSCKSSQSLFNSGNQKNYLTWYQQKPGQPPKLLIYWASTRESGVPDRFTGSGSGTDFTLTISSVQAEDLAVYYCQNDYSFPFTFGSGTKLEIK", "%", 0.34),
]

Next binder, binding percentage vs wild-type CLDN18.2 to be filled in.
Requested read-out: binding percentage vs wild-type CLDN18.2. Entry: 18B10-C (antibody, human IgG1, V domains shown, also called chimeric 18B10) VH: EFQLQQSGPELEKPGASVRISCKTSGYSFTGYNMNWVKQSNGESLEWIGNIDPYYGGTSYNQKFKGKATLTVDKSSSTAYMQLKSLTSEDSAVYYCARMYHGNAFDYWGQGTTLTVSS VL: DIVMTQSPSSLTVTAGEKVTMSCKSSQSLLNSGNLKNYLTWYQQKPGQPPKLLIYWASTRKSGVPDRFTGSGSGTDFTLTLSSVQAEDLAVYYCQNDYSYPLTFGAGTKLELK
6.57
